test system: K562; test: Cytotoxicity against human BCR-ABL positive K562 cells after 48 to 72 hrs by MTT assay; assay type: functional, cell-based
Listed below: pIC50 values for each entry.
Would you please state pIC50, meaning minus log10 of the concentration in mol/L, as a bare number?

Some compounds with recorded pIC50:
Cc1ccc(NC(=O)c2ccc(C)c(NC(=O)/C=C/c3cncnc3)c2)cc1F :: 6.17
Cc1ccc(C(=O)Nc2ccc(OC(F)(F)F)cc2)cc1NC(=O)/C=C/c1cncnc1 :: 6.04

Field request: pIC50 | item: Cc1ccc(C(=O)Nc2ccc(Cl)c(Cl)c2)cc1NC(=O)/C=C/c1cccnc1
5.84

Fill in the blank: the reported pIC50 of Cc1ccc(NC(=O)c2ccc(C)c(NC(=O)/C=C/c3cncnc3)c2)cc1 is ____.
6.44
